Test system: MCF7 breast
Assay Remarks: NCI-60 one-dose screen, 48 h (100 = growth as untreated, 0 = no growth, -100 = all killed)
Condition Parameters: 10 µM unless noted
Compounds without any hit were thinned out: in the full panel of roughly 83,000, 20% have a hit.

>  <Compound>
CC(C)(c1ccc(OCC(O)CNCc2ccco2)cc1)c1ccc(OCC(O)CNCc2ccco2)cc1 (stereo not given)

>  <growth [%]>
85.4

$$$$
>  <Compound>
C/C(=N/O)c1ccc(NC(=O)Cn2nc(-c3ccc(Cl)cc3)nc2N)cc1

>  <growth [%]>
84.9

$$$$
>  <Compound>
C=C1C(=O)O[C@H]2[C@H]1CC/C(COC(=O)c1ccc(Br)cc1)=C\CC[C@@]1(C)O[C@@H]21

>  <growth [%]>
-18.5

$$$$
>  <Compound>
CC(C(C(=O)N1CCCCC1)N1CCCCC1)N1CCCCC1 (stereo not given)

>  <growth [%]>
104

$$$$
>  <Compound>
COC(=O)c1oc2c(C(C)=O)c(OCCCN(C)C)ccc2c1C

>  <growth [%]>
148

$$$$
>  <Compound>
CN(C)CCCOc1c(Br)cc(/C=C/C(=O)N(C)CCc2cc(Br)c(OCCCN(C)C)c(Br)c2)cc1Br

>  <growth [%]>
32.5

$$$$
>  <Compound>
CCC(CC(C)C)Nc1ccc(NC(CC)CC(C)C)cc1 (stereo not given)

>  <growth [%]>
89.5

$$$$
>  <Compound>
S=c1ssnc1-c1ccccn1

>  <growth [%]>
27.4

$$$$
>  <Compound>
CCOc1cccc(Nc2nc(N)nc3[nH]c4ccc(O)cc4c23)c1

>  <growth [%]>
43.1

$$$$
>  <Compound>
CCC1CN2C(=N1)c1ccccc1-c1cc(Cl)ccc12 (stereo not given)

>  <growth [%]>
4.59

$$$$
>  <Compound>
O=C(Nc1cccc(-n2ccc3c(NC(=O)c4ccccc4)nccc32)c1)c1cc(N2CCOCC2)cc(C(F)(F)F)c1

>  <growth [%]>
21.3

$$$$
>  <Compound>
O=C(Nc1ccc(-n2cc(-c3ccncc3)c(-c3ccc(O)c(Cl)c3)n2)cc1)c1cc(C(F)(F)F)cc(C(F)(F)F)c1

>  <growth [%]>
58

$$$$
>  <Compound>
COc1ccc(Cl)cc1NC(=O)c1cc2c(n1C)-c1nc(NC(=O)C(C)C)sc1CC2

>  <growth [%]>
84.5

$$$$
>  <Compound>
CC(C)(C)OC(=O)N1CC(Cn2cc(C(F)(F)F)c3c(Cl)ncnc32)C1

>  <growth [%]>
-32.7

$$$$
>  <Compound>
COc1cc(NS(=O)(=O)c2ccc(N)cc2)ncn1

>  <growth [%]>
94.7

$$$$
>  <Compound>
NS(=O)(=O)c1ccc(CCN2C(=O)/C(=C\c3ccc(Cl)cc3)C=C2c2ccc(Oc3ccccc3)cc2)cc1

>  <growth [%]>
39.3

$$$$
>  <Compound>
C=C1C(=O)O[C@H]2[C@H]1CC/C(COC(=O)c1ccc3ccccc3c1)=C\CC[C@@]1(C)O[C@@H]21

>  <growth [%]>
-36.1

$$$$
>  <Compound>
COc1cc2ncnc(Oc3ccc(NC(=O)Nc4ccc(C5(C#N)CCCC5)cc4)c4ccccc34)c2cc1OC

>  <growth [%]>
55.2

$$$$
>  <Compound>
O=C(O)c1cc2ccccc2cc1Nc1ccccc1

>  <growth [%]>
76.2

$$$$
>  <Compound>
Nc1ccc(S(=O)(=O)Nc2cc(I)cc(I)c2)cc1

>  <growth [%]>
120

$$$$
